Value source: PubChem BioAssay

# ASSAY PROTOCOL: reduction of polyQ htt aggregates in cells – imaging, exon1htt(103Q)mCFP cells, high-content imaging, primary screen (AID 483);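 further: compound exposure lasted 3 days before fixation; percent of the per-plate median nuclei count of sample wells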
# EXPERIMENTAL CONDITIONS: exon1htt(103Q)mCFP cell line, aggregate imaging, at 2 µM; measured here: cell count, toxicity
Please respond with reported nuclei count for every item in the list.
Field: numeric (%). Do not append units.

Lab note: measured nuclei count of `Cc1cc(C)c(OCC(=O)Nc2cccc(O)c2)cc1C` was 40.4

Lab note: measured nuclei count of `COC(=O)c1cc2ccsc2n1CC(=O)Nc1cc(C)cc(C)c1` was 115

For `Cc1ccc(S(=O)(=O)Cn2nnnc2CN(Cc2ccco2)Cc2cccs2)cc1` the compound record lists nuclei count as 108

Short answer for `O=C(CSc1nnc(-c2ccccc2)o1)NC1CCCCC1` : nuclei count was 109

Please fill in: nuclei count reported for `Cc1ccc(C)c(-n2nnnc2SCC(=O)NCCC2=CCCCC2)c1` = 99.5

Documented nuclei count of CC1CCCN(C(=O)CN2CCN(C(=O)c3ccco3)CC2)C1 (stereo unspecified) : 76

Sample `CCCCSc1nc(CCC)cc(=O)[nH]1` ; nuclei count observed: 98.2

# compound Cc1cccn2c(=O)c3cc(C#N)c(=NC(=O)c4cccnc4)n(CC4CCCO4)c3nc12 (stereo unspecified) ; its nuclei count = 105

// recorded nuclei count for `COc1ccc(C(=O)COC(=O)CCn2nnc(-c3cccs3)n2)cc1` : 78.6

Entry `c1ccc(CNc2ccc3c(c2)ncn3C2CCCCC2)nc1` — recorded nuclei count = 78.3

According to the records, this compound `Cc1nnc(SC(=O)N2c3ccccc3Sc3ccccc32)s1` displays nuclei count of 99.9

The compound `CN1CCN(c2ccc(Cl)cc2NC(=O)c2cccc(S(=O)(=O)N(C)C)c2)CC1` showed nuclei count equal to 133

Lab note: `Cc1cccc(C)c1NC(=O)c1cc(S(=O)(=O)N2CCOCC2)ccc1F` gave nuclei count of 56.5

What the record says about `O=C(N1CCOCC1)N1CCC(NC(=O)C23CC4CC(CC(C4)C2)C3)CC1` : nuclei count is 99

So for CCOC(=O)N1CCC(NC(=O)C2CCCN(C(=O)c3cc4sccc4n3C)C2)CC1 (stereo unspecified) , the logged nuclei count turned out to be 127

Item: `O=C(CSc1ncn[nH]1)c1ccco1` | nuclei count: 112

Lookup result for `CCCCc1cc(=O)oc2c(CN3CCCC3)c(O)c(Cl)cc12` ; measured nuclei count: 46.6

// sample `Cc1ccc2c(C(=O)CN3CCSCC3)c(C)[nH]c2c1` , its nuclei count was 106

// nuclei count value for COc1ccc(CN(CC(=O)NCC2CCCO2)C(=O)CCC(=O)Nc2cc(C)on2)cc1 (stereo unspecified) : 89.3

Lab note: `COc1cc(NC(=O)Nc2cccc(C(C)=O)c2)cc(OC)c1OC` gave nuclei count of 99.7

The recorded nuclei count for CCOC(=O)CSC1=C(C#N)C(c2ccc(Cl)cc2)C(C(=O)OC)C(=O)N1 (stereo unspecified) is 40.5

For record `CC(=O)N1CCc2c(sc(NC(=O)c3ccc(S(=O)(=O)N(C)C)cc3)c2C#N)C1` the listed nuclei count is 87.4

Record `CCC(C)(C)NC(=O)CN(C(=O)c1snc(C(N)=O)c1N)c1ccc2c(c1)OCO2` . Reported nuclei count: 103

So for `Cc1ccc(S(=O)(=O)NCCC(=O)OCn2nnc3ccccc3c2=O)cc1` , the logged nuclei count turned out to be 102

Lab note: `CCOc1ccc(Cl)cc1S(=O)(=O)N1CCCC1` gave nuclei count of 101

For `CCOC(=O)CSc1nnc(-c2cccnc2)n1Cc1ccccc1` the compound record lists nuclei count as 97.1

Per the records, this compound ( `COc1ccc(-c2c(=O)n(OCc3ccccn3)c3ccccc3[n+]2[O-])cc1OC` ) has nuclei count equal to 104

The measured nuclei count associated with O=C(NCc1ccc2c(c1)OCO2)C1CCCN(S(=O)(=O)c2cccc3cccnc23)C1 (stereo unspecified) reads 125

According to the records, this compound `O=c1oc2c3c4c(cc2cc1-c1nc2ccccc2[nH]1)CCCN4CCC3` displays nuclei count of 112

Record `Cc1ccc2cc(C#N)c(N3CCCC3)nc2c1C` , field nuclei count: 111

The recorded nuclei count for `O=C(Nc1cccnc1N1CCOCC1)c1ccco1` is 104

Entry `CN(C1CCCCC1)S(=O)(=O)c1ccc(S(=O)(=O)N2CCCC2)cc1` ; nuclei count = 100

nuclei count in this record for `CCCN(CCC)CCCNS(=O)(=O)c1ccc2c(c1)oc(=O)n2C` : 102

Per the records, this compound ( `O=C(CSc1nc2ccccc2[nH]1)N1CCCCC1` ) has nuclei count equal to 102

response.value for `Cc1cc(C)c(NC2=NCC(=O)N2C2CCCCC2)c(C)c1` (field: nuclei count) = 122

Data point: `O=S(=O)(NCCc1ccncc1)c1cc(Br)ccc1F` ; nuclei count = 106

// nuclei count lookup, compound = `CCOC(=O)c1sc(NC(=O)CSc2ncn(-c3ccccc3)n2)nc1C` , result: 102

Sample `COc1ccc(CC(=O)N2CCOCC2)cc1OC` ; nuclei count observed: 106

Entry COc1ccccc1C1/C(=C(/O)c2ccccc2)C(=O)C(=O)N1CC(C)C (stereo unspecified) , nuclei count reported as 112

Entry `Cc1n[nH]c(C)c1N1C(=O)c2cccc3cc(Br)cc(c23)C1=O` , nuclei count reported as 103

Consider `CSCC[C@@H](Nc1nc(-c2ccccc2)nc2c1oc1ccccc12)C(=O)O` . Its measured nuclei count is 83.4

nuclei count reading for `COc1ccc(S(=O)(=O)Nc2ccc(Cl)cn2)c(C)c1C` : 62

Notebook: `O=C(NCCCNC1CCCCC1)c1ccc(/C=N/O)nc1` , nuclei count read as 67.6

Entry under test: `O=C(Nc1ccc(SC(F)F)cc1)c1ccc2nccnc2c1` . Its nuclei count was 101

Lookup result for `O=C(Nc1cccc(F)c1)c1ccc2c(c1)OCO2` ; measured nuclei count: 83.5

The reported nuclei count of the compound `CC(=O)CCc1ccc(OCCCCn2cncn2)cc1` was 92.1

* * *

For each record, write down the corresponding slope.
# MEASUREMENT TARGET: Alpha-2C adrenergic receptor (Homo sapiens)
# ASSAY PROTOCOL: compounds altering alpha2C-coupled GIRK flux – cell-based, HEK293 alpha2C/GIRK1/2, thallium flux, primary screen (AID 624);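 further: slope of fluorescence ratio to pre-addition baseline per second over 15 to 24 s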
# EXPERIMENTAL CONDITIONS: thallium flux BTC fluorescence, at 10 µM, actives lie on both sides
The source made the active and inactive calls.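 The calls were made as follows: active = fluorescence slope after compound addition differing from the mean of all screened samples at 99.7% confidence, in either direction; inactive = the rest.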

Form: compound = Cc1[nH]c(=O)[nH]c(=O)c1S(=O)(=O)N1CCCC(C(=O)NCc2ccco2)C1 (configuration not stated) ; slope = 0.00332 (inactive)

Entry CC(C)C(c1nnnn1C1CCCC1)N1CCN(C(=O)c2ccco2)CC1 (configuration not stated) — recorded slope = 0.00617 (inactive)

Measured slope of `CCOc1ccc2oc(-c3ccccc3)c(C(=O)N3CCN(CCO)CC3)c2c1` : 0.00775 (inactive)

Lab note: Cc1ccc2oc(=O)c3cnn(CC(=O)N4CCCCC4C)c3c2c1 (configuration not stated) gave slope of 0.00597 (inactive)

// slope lookup, compound = O=C(O)C1CCCN1c1ncnc2c1oc1ccccc12 (configuration not stated) , result: 0.00455 (inactive)

Measured slope of O=C(NCC1COc2ccccc2O1)c1ccc(NC(=O)c2ccco2)cc1 (configuration not stated) : 0.00329 (inactive)

Recorded slope (compound CC1CCc2c(sc3c2C2=NS(=O)(=O)CCN2C=N3)C1 (configuration not stated) ): 0.00732 (inactive)

Record COCCn1nnnc1C(c1cc2ccc(OC)cc2[nH]c1=O)N1CCc2ccccc2C1 (configuration not stated) , field slope: 0.00527 (inactive)

slope reported for this compound `CN1CCN(S(=O)(=O)c2ccc(NC(=O)Nc3cccc(Cl)c3)cc2)CC1` : 0.00476 (inactive)

The compound identified as `O=C(Nc1ccccc1-c1nc2ccccc2o1)c1ccc2c(c1)OCCO2` registered its slope at 0.0146 (inactive)

Measured slope, COc1cccc(N(C(=O)c2ccco2)C(C(=O)NC2CCCC2)c2ccc(N(C)C)cc2)c1 (configuration not stated) : 0.00648 (inactive)

Entry under test: `CCN(CC)S(=O)(=O)c1ccc(Cl)c(C(=O)OC)c1` . Its slope was 0.00748 (inactive)

Input O=C(OCCN=C1NS(=O)(=O)c2ccccc21)C1CC(=O)N(c2ccc(Cl)cc2)C1 (configuration not stated) . Output slope: 0.00337 (inactive)

Record summary for `COc1ccc(C)cc1NC(=O)CN1CCN(S(=O)(=O)c2ccc(Cl)cc2)CC1` : reported slope = 0.0018 (inactive)

// slope value for COCCNC(=O)C(c1ccc(C)o1)N(Cc1cccs1)C(=O)c1snc(C(N)=O)c1N (configuration not stated) : 0.00484 (inactive)

Form field slope, entry `Cc1ccc2nc(C3CCN(CC(=O)N4CCCCCC4)CC3)[nH]c2c1` : 0.00562 (inactive)

Query `COCCn1c(CN2CCN(c3ccccc3F)CC2)nc2c1c(=O)n(C)c(=O)n2C` yields slope of 0.00711 (inactive)

compound `COc1ccc(C(=O)NC(=O)CSc2nnc(-c3ccco3)n2-c2ccccc2)cc1` , slope observed: 0.0052 (inactive)

Noted for `C=Cn1c(N2CCOCC2)nc2c1c(=O)[nH]c(=O)n2C` : its slope reads 0.00579 (inactive)

Entry Cc1noc(/C=C/N(C)C)c1S(=O)(=O)N1CCCC(C(=O)N2CCCCC2)C1 (configuration not stated) ; slope = 0.00526 (inactive)

For this compound ( `CC(=O)CCc1ccc(OCCCCn2cncn2)cc1` ), measured slope is 0.00807 (inactive)

The value of slope measured for the compound `COc1ccc(-c2nnc(SCC(=O)N3CCOCC3)o2)cc1OC` turned out to be 0.0068 (inactive)
